System: Wolbachia pipientis
Experiment: Anti-Wolbachia Cell-Based Screen
Format: functional
Design: scale not given: in the data most compounds retested in dose-response had high values
Details: 5 µM
About 13,000 (27%) of roughly 48,000 compounds showed an effect of 50% or more. Some of the results follow.
readoutKind: Percent Effect (%)
One number for each entry, in %.

Example cases with answers are listed next.
INSERT INTO results (compound, assayresult) VALUES
  ('CNC(=O)[C@@H]1[C@H]2CNCCN2C[C@H]1c1ccccc1', 84.83),
  ('COc1ccc(Cl)cc1CC(=O)N1CCN(CC(C)O)CC1 (stereo unspecified)', 112.2),
  ('FC(F)CN1CCOC(Cn2cccn2)C1 (stereo unspecified)', 120.3),
  ('O=C(O)C(F)(F)F.O=C(O)C(F)(F)F.O=C1CO[C@@H]2CN(CC3CCOCC3)C[C@H]2N1Cc1ccncc1', 87.76),
  ('O=C1NC[C@H]2CN(Cc3ccccn3)CCN12', -1.346),
  ('CCOc1ccc(C2SCC(=O)Nc3c2c(=O)[nH]n3C(C)C)cc1 (stereo unspecified)', 112);

Batch: Percent Effect for all items listed.
1. CCCN1CCC2(Cc3ccccc3NC2=O)C1 (stereo unspecified)
2. O=C(Cc1csc(-c2ccco2)n1)N1CCN(CCO)CC1
3. CC(Cn1cncn1)NCc1n[nH]c2c1CCCCC2 (stereo unspecified)
4. CC[C@H]1CN2CC[C@H]1C[C@@H]2CNCc1ccc2c(c1)OCO2
5. CCOCC(O)CN1CCN(C(=O)Cc2ccccc2Cl)CC1 (stereo unspecified)
6. COc1ccc(C(=O)C2CCCN(Cc3ccc(C)o3)C2)c(OC)c1 (stereo unspecified)
7. O=C1CO[C@@H]2CN(C3CCOCC3)C[C@H]2N1Cc1ccncc1
8. O=C1NCc2ccccc2CC12CCN(Cc1ccncc1Cl)C2 (stereo unspecified)

**A:**
1: -12.05; 2: 5.506; 3: -17.11; 4: 5.104; 5: -8.97; 6: -6.752; 7: 117.1; 8: 100.7

Dear reader, for each entry below, please note its Percent Effect.
1. Cc1cnn(CC(C)NCCc2cccs2)c1 (stereo unspecified)
2. Cn1cc(CN2CC[C@H]3[C@H]2CC(=O)N3Cc2ccncc2)cn1
3. Cc1csc(CN2C[C@@H]3CN(C)CCO[C@@H]3C2)n1
4. CN1C(=O)CCC12CCCN(Cc1nccs1)C2.O=C(O)C(F)(F)F (stereo unspecified)
5. CSc1nccc(N2CCN(C)C3(CCNC(=O)CC3)C2)n1 (stereo unspecified)

**A:**
[11.98, 97.58, 8.009, 0.9809, -8.805]

----------
System: Wolbachia pipientis
Test: Anti-Wolbachia Cell-Based Screen
Format: functional
Design: scale not given: in the data most compounds retested in dose-response had high values
Settings: 5 µM
Out of some 48,000 compounds screened, about 13,000 (27%) showed an effect of 50% or more. Some of the results follow.
Field: Percent Effect. Provide a value for each of the compounds that follow.
Answers are plain numbers, in %.

INSERT INTO results (compound, readoutkind, assayresult) VALUES
  ('Cl.O=C(C1CCCCC1)N1CC2(CCNCC2)C1', 'Percent Effect', -23.98),
  ('c1cnc(Nc2ccc(C3CCCCN3)cn2)cn1 (stereo not given)', 'Percent Effect', 123.5),
  ('COCCNC(=O)C1(c2ccc(C)c(OC)c2)CCCC1', 'Percent Effect', -0.08716),
  ('O=C(O)C(F)(F)F.c1cnc(NC[C@@H]2CCC[C@@H]3CN(Cc4cccnc4)C[C@@H]32)nc1', 'Percent Effect', -1.894),
  ('O=C(CCc1ccsc1)N1CCC(C(=O)O)(c2ccccc2)CC1', 'Percent Effect', 7.958);

Provide the reported Percent Effect of each entry below, same order.
1. O=C(C1CCCO1)N1CCC2(CC1)CNCCO2 (stereo not given)
2. CCN1C[C@H]2N(c3ncccn3)CCC[C@@]2(C(=O)NCC2CC2)C1

**A:**
-5.383
121.2

For each entry beneath this line, provide reported Percent Effect.
1. CNC(=O)[C@@]12CCCN(c3ncccn3)[C@@H]1CN(C)C2.O=C(O)C(F)(F)F
2. Fc1ccc(CN2C[C@@H](OCc3ccccn3)[C@H]3COC[C@H]32)cc1.O=C(O)C(F)(F)F.O=C(O)C(F)(F)F
3. O=C(CC[C@@H]1CCCN2CCCC[C@H]12)NCCc1cc(O)ncn1
4. CN1[C@@H](C(=O)NCC2CC2)C[C@@H]2CN(c3ncccn3)C[C@@H]21
5. Cc1cc(C)c(CNc2ncnc3ccccc23)c(=O)[nH]1
6. CN1CCN(S(=O)(=O)c2ccccc2)Cc2cccnc21.O=C(O)C(F)(F)F

**A:**
1: -0.06284; 2: 103; 3: -16.08; 4: -3.694; 5: 14.2; 6: 87.5

Below are 8 compounds. Give each one its Percent Effect.
1. O=C(N[C@@H]1CN(Cc2ccccn2)[C@@H]2COC[C@@H]21)C1CCC1.O=C(O)C(F)(F)F
2. CN(Cc1ccco1)[C@@H]1CN(Cc2cccnc2)[C@@H]2CCCO[C@H]12.O=C(O)C(F)(F)F.O=C(O)C(F)(F)F.O=C(O)C(F)(F)F
3. Cc1ccc(N2CCN(C)c3ncccc3C2)nn1.O=C(O)C(F)(F)F
4. O=C(O)C(F)(F)F.O=C(O)C(F)(F)F.O=C1[C@H]2CN(Cc3ccoc3)C[C@H]2CN1Cc1cccnc1
5. CCN(CC)CCN1CCO[C@H]2[C@@H](OCc3ccccn3)CC[C@@H]21
6. CCCSCC(=O)N1C[C@H]2CC[C@@H]1CN(Cc1cccnc1)C2
7. Nc1cc(-c2cccc3c2CCNC3)ncn1
8. CN(Cc1ccccc1)c1ncccc1CNC1CN2CCC1CC2 (stereo not given)

**A:**
[-10.37, 8.312, 6.797, -13.37, -0.06843, -15.35, 9.212, -8.195]

Your task in this section: give Percent Effect for each listed record.
1. O=C(O)C(F)(F)F.O=C(O)C(F)(F)F.c1ccc(CO[C@@H]2CN(Cc3nccs3)[C@@H]3COC[C@@H]32)nc1
2. O=C(NCC1CC1)C1CCC2(CCNCC2)C1 (stereo not given)
3. COC1CCC[C@@H]2CN(Cc3csc(C)n3)C[C@H]12.O=C(O)C(F)(F)F (stereo not given in full)
4. O=C(O)C(F)(F)F.O=C(O)C(F)(F)F.c1ccc(O[C@@H]2CN(Cc3nccs3)[C@@H]3CCCO[C@@H]32)nc1

**A:**
[102.5, -14.8, -10.37, -2.827]

----------
Test system: Wolbachia pipientis
Experiment: Anti-Wolbachia Cell-Based Screen
Assay type: functional
Design: scale not given: in the data most compounds retested in dose-response had high values
Details: 5 µM
Hit rate of the full screen: of about 48,000 compounds, about 13,000 (27%) showed an effect of 50% or more. This is one part of the list.
Provide the reported Percent Effect of each item.
Give bare numbers, in %.

Reference set, count: 5
INSERT INTO results (compound, assayresult) VALUES
  ('O=S1(=O)C[C@@H]2[C@H](C1)N(Cc1ncc[nH]1)CCN2Cc1cccnc1', -2.711),
  ('N#CC1(c2ccccc2)CCN(C(=O)C2CCCN(C(N)=O)C2)CC1 (stereo not drawn)', 6.737),
  ('COc1ccc2ncn(Cc3ncc[nH]3)c(=O)c2c1', 121),
  ('O=C(NC[C@H]1C[C@@H]2CCN1C[C@@H]2CN1CCOCC1)Nc1ccsc1', 0.8179),
  ('CN1CCN([C@@H]2CN(C(=O)Cc3ccsc3)[C@@H]3CCCO[C@H]23)CC1.O=C(O)C(F)(F)F.O=C(O)C(F)(F)F', -4.372);

Dear colleague, could you please provide Percent Effect for the compounds listed below?
1. CN(C)[C@@H]1CN(C(=O)Cc2ccccc2)[C@@H]2CCCO[C@H]12.O=C(O)C(F)(F)F
2. Cc1cccc(CN2C[C@@H](NC(=O)C3CC3)[C@H]3OCCC[C@H]32)n1.O=C(O)C(F)(F)F.O=C(O)C(F)(F)F
3. Cc1cc(CN2C[C@@H]3CCCO[C@@H]3[C@H](N(C)C(C)C)C2)no1.O=C(O)C(F)(F)F.O=C(O)C(F)(F)F
4. O=C(Cc1ccsc1)N1C[C@@H]2OCCN(CC3CC3)[C@@H]2C1.O=C(O)C(F)(F)F
5. O=C(O)C(F)(F)F.c1cnc(N2CCCC3(CCN(CC4CCC4)C3)C2)nc1 (stereo not drawn)

**A:**
1: 100.5; 2: -26.04; 3: -6.146; 4: -8.837; 5: -2.816

Hey, quick one: what's Percent Effect for each of these?
1. O=C(Cc1cccs1)N1C[C@@H]2OCCN(CC3CCCO3)[C@@H]2C1.O=C(O)C(F)(F)F (stereo partly drawn)
2. CCOC(=O)N1CCC2(CCNC2)C1.Cl (stereo not drawn)
3. CCc1ncc(CN2C[C@H]3CC[C@@H]2CN(C(=O)C2CCC2)C3)cn1
4. Cc1ncc(CN2CCC3(CCCN(CC4CCC4)C3)C2)cn1 (stereo not drawn)
5. O=C(Cc1ccc(O)c(F)c1)N1CCN(CC2CC2)[C@@H]2CS(=O)(=O)C[C@@H]21

**A:**
1. -0.9645
2. -20.05
3. -5.818
4. 97.43
5. -17.2

Provide the reported Percent Effect of each entry below, same order.
1. CCc1cnc(N2CC3(CCN(Cc4ccsc4)C3)C2)nc1.O=C(O)C(F)(F)F
2. COCCN1CCC2(CCCN(c3ncc(F)cn3)C2)C1 (stereo not drawn)
3. Cc1cccc(CN2C(=O)C[C@@H]3[C@@H]2CCN3Cc2ccsc2)n1.O=C(O)C(F)(F)F.O=C(O)C(F)(F)F

**A:**
1. 18.1
2. 7.957
3. 96.12
